Here we gather Ki data for UniProt P23385 reported by several publications.
measurement type: Ki

| smiles code | measurement type | result |
| --- | --- | --- |
| Cc1ccc(S(=O)(=O)c2sc3ncccc3c2-c2ccc(Cl)cc2)cc1 | Ki | 500 to 1500 nM |
| N#Cc1cc(F)cc(S(=O)(=O)c2cnc3ccccc3c2-c2ccc(Cl)cc2)c1 | Ki | > 500 nM |
| O=S(=O)(c1cc(Cl)cc(Cl)c1)c1cnc2c(F)cccc2c1-c1ccc(F)c(F)c1 | Ki | > 500 nM |
| N#Cc1cc(F)cc(S(=O)(=O)c2cnc3ccccc3c2-c2ccc(F)c(F)c2)c1 | Ki | > 500 nM |
| O=S(=O)(c1cc(Cl)cc(Cl)c1)c1cnc2c(F)cccc2c1-c1ccccc1F | Ki | > 500 nM |
| Cc1ccc(S(=O)(=O)c2cnc3ccc(F)cc3c2-c2ccc(Cl)cc2)cc1Cl | Ki | > 500 nM |
| CCOC(=O)CC(=O)c1sc2nc(C)ccc2c1-c1ccc(Cl)cc1 | Ki | < 500 nM |
| O=S(=O)(c1ccc(Cl)cc1)c1cnc2ccc(F)cc2c1-c1cccc(Cl)c1 | Ki | > 500 nM |

----------
Here we gather pKi data for Metabotropic glutamate receptor 1 (Rattus norvegicus, UniProt P23385) reported by several publications.
pKi: −log10 of the molar value.

| smiles code | pKi |
| --- | --- |
| O=S(=O)(c1ccc(F)c(F)c1)c1cnc2cc(F)ccc2c1-c1cccc(F)c1 | 6.30 to 6.70 |
| O=C(Nc1ccc(F)cc1)c1sc2ncccc2c1-c1ccc(F)cc1 | < 5.82 |
| O=S(=O)(c1ccc(F)c(Cl)c1)c1cnc2cc(F)ccc2c1-c1ccc(Cl)cc1 | 6.30 to 6.70 |
| COc1cccc(S(=O)(=O)c2cnc3cc(F)ccc3c2-c2ccc(F)cc2)c1 | < 6.30 |
| O=S(=O)(c1ccc(F)c(F)c1)c1cnc2ccccc2c1-c1ccc(F)cc1 | < 6.30 |
| COc1cccc(-c2c(S(=O)(=O)c3ccc(F)c(F)c3)cnc3ccc(F)cc23)c1 | < 6.30 |
| COc1ccc(-c2c(S(=O)(=O)c3ccc(F)cc3)cnc3ccc(F)cc23)cc1 | < 6.30 |
| O=S(=O)(c1ccc(-c2ccccc2)cc1)c1sc2ncccc2c1-c1ccc(Cl)cc1 | < 5.82 |

----------
Here we gather Ki data for Metabotropic glutamate receptor 1 (Rattus norvegicus) reported by several publications.

| smiles code | Ki |
| --- | --- |
| Cc1noc(C)c1S(=O)(=O)c1sc2ncccc2c1-c1ccc(Cl)cc1 | > 1.5 µM |
| O=S(=O)(c1ccc(F)c(Cl)c1)c1cnc2c(F)cccc2c1-c1ccc(Cl)cc1 | 0.2 to 0.5 µM |
| O=S(=O)(c1ccc(F)c(F)c1)c1cnc2cc(Cl)ccc2c1-c1ccc(Cl)cc1 | > 0.5 µM |
| O=S(=O)(c1ccc(Cl)c(F)c1)c1cnc2cc(F)c(Cl)cc2c1-c1cccc(F)c1 | > 0.5 µM |
| N#Cc1cc(S(=O)(=O)c2cnc3ccccc3c2-c2cccc(F)c2)ccc1F | > 0.5 µM |
| O=C(CCc1ccccn1)c1sc2ncccc2c1-c1ccc(F)cc1 | < 0.5 µM |
| N#Cc1cccc(S(=O)(=O)c2cnc3ccc(F)cc3c2-c2ccc(Cl)cc2)c1 | 0.2 to 0.5 µM |
| N#Cc1cc(F)cc(S(=O)(=O)c2cnc3cc(Cl)ccc3c2-c2ccc(F)cc2)c1 | > 0.5 µM |

----------
Here we gather Ki data for Metabotropic glutamate receptor 1 (Rattus norvegicus, UniProt P23385) reported by several publications.
measurement type: Ki

| smiles code | measurement type | result |
| --- | --- | --- |
| O=S(=O)(c1ccc(F)c(F)c1)c1cnc2ccc(F)cc2c1-c1cccc(Cl)c1 | Ki | 0.2 to 0.5 µM |
| Cc1ccc(S(=O)(=O)c2cnc3ccc(F)cc3c2-c2cccc(Cl)c2)cc1Cl | Ki | > 0.5 µM |
| COc1cccc(S(=O)(=O)c2cnc3ccc(F)cc3c2-c2cccc(Cl)c2)c1 | Ki | > 0.5 µM |
| COc1ccc(-c2c(S(=O)(=O)c3ccc(OC)cc3)cnc3c(F)cccc23)cc1 | Ki | > 0.5 µM |
| N#Cc1cccc(S(=O)(=O)c2cnc3ccc(F)cc3c2-c2ccc(F)cc2)c1 | Ki | 0.2 to 0.5 µM |
| CC(=O)Nc1ccc(S(=O)(=O)c2sc3ncccc3c2-c2ccc(Cl)cc2)cc1 | Ki | > 1.5 µM |
| O=C(Cc1ccc(F)cc1)c1sc2ncccc2c1-c1ccc(F)cc1 | Ki | < 0.5 µM |
| O=S(=O)(c1ccc(F)c(F)c1)c1cnc2cc(F)ccc2c1-c1ccccc1F | Ki | > 0.5 µM |

----------
Here we gather Ki data for UniProt P23385 reported by several publications.

| smiles code | Ki |
| --- | --- |
| O=S(=O)(c1cc(Cl)cc(Cl)c1)c1cnc2cc(Cl)ccc2c1-c1cccc(F)c1 | > 0.5 µM |
| O=S(=O)(c1ccc(Cl)cc1Cl)c1sc2ncccc2c1-c1ccc(Cl)cc1 | > 1.5 µM |
| O=S(=O)(c1ccc(Cl)cc1)c1cnc2c(Cl)cccc2c1-c1ccc(Cl)c(Cl)c1 | > 0.5 µM |
| O=S(=O)(c1cccc(F)c1)c1cnc2c(F)cccc2c1-c1ccc(Cl)cc1 | 0.2 to 0.5 µM |
| COc1cccc(-c2c(S(=O)(=O)c3cc(F)cc(F)c3)cnc3ccc(F)cc23)c1 | > 0.5 µM |
| O=S(=O)(c1sc2ncccc2c1-c1ccc(Cl)cc1)C1CCCCC1 | > 1.5 µM |
| O=C(OCc1ccc(F)cc1)c1sc2ncccc2c1-c1ccc(Cl)cc1 | < 0.5 µM |
| O=S(=O)(c1ccc(F)c(F)c1)c1cnc2c(F)cccc2c1-c1cc(F)cc(F)c1 | 0.2 to 0.5 µM |
| Cc1ccc(S(=O)(=O)c2cnc3ccc(F)cc3c2-c2ccc(Cl)cc2)cc1C | > 0.5 µM |
| Cc1ccc(S(=O)(=O)c2cnc3ccc(F)cc3c2-c2cccc(F)c2)cc1F | > 0.5 µM |
| Cc1ccc(S(=O)(=O)c2cnc3cc(F)ccc3c2-c2cccc(Cl)c2)cc1F | > 0.5 µM |
| O=S(=O)(c1cc(Cl)cc(Cl)c1)c1cnc2c(F)cccc2c1-c1ccc(F)cc1 | < 0.2 µM |
| CN(Cc1cccs1)C(=O)c1sc2ncccc2c1-c1ccc(Cl)cc1 | > 1.5 µM |
| O=S(=O)(c1cccc(F)c1)c1cnc2c(F)cccc2c1-c1cccc(Cl)c1 | 0.2 to 0.5 µM |
| COc1cccc(-c2c(S(=O)(=O)c3cc(F)cc(F)c3)cnc3cc(F)ccc23)c1 | > 0.5 µM |
| N#Cc1cc(C#N)cc(S(=O)(=O)c2cnc3cc(F)ccc3c2-c2ccc(F)cc2)c1 | > 0.5 µM |
| O=S(=O)(c1ccc(F)cc1)c1cnc2cc(F)ccc2c1-c1ccc(Cl)cc1 | > 0.5 µM |
